The reader will find reported PET hydrolysis values listed item by item below.
test protocol: PET hydrolysis, aromatic products released after 48 h (umol product/mg enzyme); higher = more PET depolymerization activity
condition: substrate: cryPow; 60 °C; pH 5.5

- query sequence: "LNPYQRGPNPTDAILEASSGPYATSSISVPSIVSGFGGGRIYYPTTTADGTFGGIAISPGFTATWSSLSWLGPRLASHGFVVIGIETNTIYDQPTSRGQQLLAALDYLVNTSSVRTRVDSSRLAVAGHSMGGGGTLWAANSRPSLQAAIPLAPWNTDKSWSGVRVPTLIVGGQSDTVAPVATHSIPFYTSIPAASEKAYLELRSASHFFPQTVNTTVAVSMVSWLKRYVDDDTRYDPWLCPGPSGLSVSDYRDTCPA [TEP178]"
  outcome measure: "PET hydrolysis"
  endpoint result: "< 3"
- query sequence: "ATPDHAATADHASAHHHAAYPVSQQTIPATDGTGFGAATLYAPQGTGRKTLGAIVVAPGLKGDQSDLAWLAQDLAGEGFIVLNMDTLGKYDLPNQRSYEMLAAAKYLATASSVKDQVDPADIGVVGYSLGGGGALQAAVEQHGLKAAVALMPYDFPAGTTDPYKPTESPTYPGITTPTLVITGQADTTAPAASMGKPAYDSIPASTPKQYLELRGADHLAARATTNGTVRDAVTNFLKVYLDGNSAYRKYVCPAPPTSAAISESASSCPR [ESM174]"
  outcome measure: "PET hydrolysis"
  endpoint result: "< 3"
- query sequence: "STRNQEPTLQSIEAARGPYEIATQSVPPAVNTGFGGGTIYYPATTGAGKFGAVALSPGYMEKEYSFSWLGTRLASQGFVVFIINTQNSEEFPSARTDELLASLNYLTQTSEVRDRVDPNRLAVMGHSMGGGAALEAAEKNQSLRAVISMTPWNIKTTYSDIKTPTLIIGAQYDNIAPVHDHAQPSYASLPNDLAKSYLELRNGNHFSPNMENTAIARSSTVWLKRFVDGDTRYNKFICPGPTVGDEFNIVQSNCPIL [DP079]"
  outcome measure: "PET hydrolysis"
  endpoint result: "< 3"
- query sequence: "DEIGQAPTASNITGNGSFATTSASISSTVAGFGGGRVYYPTATGTYPVIAISPGFTATWSSLSWIGPRLSSWGFVVVGIETNSIYDQPGSRGSQLLAALNWAVSSSPTAVRSRVDGSRRGVAGHSMGGGGTLEALAADTSGLVKAGVPLAPWNSDKTWNNVSEPVLIVGGQSDTIAPVSSHSVPFYNTLAGPKTYVELTGASHFFPQSSNATTSRALVSWFKRWLNQDSRFTPFTCGFSGAAVSSFRTNAC [ESM093]"
  outcome measure: "PET hydrolysis"
  endpoint result: 7

Now take the following sequence into account.
# input Report PET hydrolysis for MRPGRVCPDSCGCRPSSRRKDATIVQQLRNETIGSPSPHRAPRRFRPRLVRAGLAALLAAGGLFTAQSGSAGAAQNPYERGPAPTVSSIEAPRGPYAVSETRVSSLGVTGFGGGTLYYPTTTRDGTFGAVAISPGYGGTQSSISWLGPRLASQGFVVFTIDTLSTLDQPAGRGGQLLAALDYLTQRSSVRDRVDSGRLGVMGHSMGGGGSLEAAKSRPALQAAIPLTGWNLDKTWQELRTPTLVVGADGDTIAPVSSHSEPFYESLAGSLDKAYLELNGASHFTPNSSNTTIAKYSVSWLKRFIDNDLRYEQFLCPLPRPGATIEEYRGNCPHTS [TEP099] please.
# output < 3

Provenance of the data: the supplement of paper PMC12455559
